System: NCI-H226
experiment description: NCI tumour cell line growth inhibition, 48 h
Activity calls are given as the source filed them. No stated cut-off is given here; in the data, active = GI50 up to about 1.1 µM and inactive = higher.
measurement name: GI50

{"given smiles": "C[C@]12CCC3=NCCN3C1=CC[C@@H]1[C@@H]2CC[C@@]2(C)[C@H]1CC[C@]2(C)O", "GI50": "39.5 µM (inactive)"}
{"given smiles": "COc1cc(/C=C/C=C2\\CC/C(=C\\C=C\\c3ccc(O)c(OC)c3)C2=O)ccc1O", "GI50": "> 100 µM (inactive)"}
{"given smiles": "Cc1ccccc1NC(=O)C(=O)c1c(O)c2ccc(O)cc2oc1=O", "GI50": "> 100 µM (inactive)"}
{"given smiles": "O=C(Sc1c(-c2ccccc2)c(=O)n(-c2ccccc2)c(=S)n1-c1ccccc1)c1ccc(Cl)cc1", "GI50": "> 100 µM (inactive)"}
{"given smiles": "CCC/C(Cl)=N\\OC(=O)Nc1ccc(Br)cc1", "GI50": "21.6 µM (inactive)"}
{"given smiles": "CC[C@@H]1CC[C@@H]2[C@H](CC[C@]3(C)[C@@H](OC(C)=O)CC[C@@H]23)[C@H]1C(=O)OC", "GI50": "18.8 µM (inactive)"}
{"given smiles": "Cc1oc2c(c1C)S(=O)(=O)C(C#N)=C(N(C)C)N2", "GI50": "> 100 µM (inactive)"}
{"given smiles": "COc1ccc2c(c1)C(=O)[C@@](Nc1ccc(C=O)cc1)(OC)[C@@](OC)(c1ccc([N+](=O)[O-])cc1)O2", "GI50": "6.12 µM (inactive)"}

## Input Give its GI50 value. Item: O=C(O)c1ccc([N+](=O)[O-])c(P(=O)(O)O)c1
## Output > 100 µM (inactive)

meta.source: ChEMBL document CHEMBL1201862
